All figures here come from ChEMBL document CHEMBL4049387.

target: Organic cation/carnitine transporter 2 (Homo sapiens, UniProt O76082); assay: Drug transport assessed as Vmax for OCTN2 transporter mediated drug uptake in human Caco2 cells after 10 mins by Eadie-Hofstee plot method; type: ADME, cell-based; conditions: caco-2, 10 min

MOLECULE: C[N+](C)(C)CC(CC(=O)[O-])OC(=O)CCCCC(=O)Nc1ccn([C@@H]2O[C@H](CO)[C@@H](O)C2(F)F)c(=O)n1 (some centres undefined)
Vmax / nmol/mg: 0.286
//
MOLECULE: C[N+](C)(C)CC(CC(=O)[O-])OC(=O)CCCCCCC(=O)Nc1ccn([C@@H]2O[C@H](CO)[C@@H](O)C2(F)F)c(=O)n1 (some centres undefined)
Vmax / nmol/mg: 0.4344
//
MOLECULE: C[N+](C)(C)CC(CC(=O)[O-])OC(=O)CCC(=O)Nc1ccn([C@@H]2O[C@H](CO)[C@@H](O)C2(F)F)c(=O)n1 (some centres undefined)
Vmax / nmol/mg: 0.2013
//
MOLECULE: C[N+](C)(C)CC(CC(=O)[O-])OC(=O)CCCCCCCCC(=O)Nc1ccn([C@@H]2O[C@H](CO)[C@@H](O)C2(F)F)c(=O)n1 (some centres undefined)
Vmax / nmol/mg: 0.3884

====

target: Organic cation/carnitine transporter 2 (Homo sapiens); assay: Ratio of drug transport assessed as OCTN2 transporter mediated drug uptake in human Caco2 cells at 1 to 800 uM in presence of Na+ to drug transport assessed as OCTN2 transporter mediated drug uptake in human Caco2 cells at 1 to 800 uM in presence of N-methyl-D-glucamine; assay type: ADME, cell-based; details: caco-2, 800 µM

COMPOUND: C[N+](C)(C)CC(CC(=O)[O-])OC(=O)CCCCC(=O)Nc1ccn([C@@H]2O[C@H](CO)[C@@H](O)C2(F)F)c(=O)n1 (some centres not stated)
Ratio: 2 to 10
//
COMPOUND: C[N+](C)(C)CC(CC(=O)[O-])OC(=O)CCC(=O)Nc1ccn([C@@H]2O[C@H](CO)[C@@H](O)C2(F)F)c(=O)n1 (some centres not stated)
Ratio: 2 to 10

====

test: Cmax in Wistar rat at 7.5 mg/kg, iv administered as single dose by UPLC-MS/MS method; assay type: ADME, organism-based; design: dose 7.5 mg/kg, route intravenous; settings: in vivo

SMILES_REPRESENTATION: Nc1ccn([C@@H]2O[C@H](CO)[C@@H](O)C2(F)F)c(=O)n1
Cmax, ng/mL: 7100

====

test system: Rattus norvegicus; test: AUC (0 to 24 hrs) in Wistar rat at 7.5 mg/kg, iv administered as single dose by UPLC-MS/MS method; format: ADME, organism-based; parameters: dose 7.5 mg/kg, time < 24 hr, route intravenous; conditions: in vivo
ENDPOINT: AUC (µg·h/mL)

SMILES_REPRESENTATION: Nc1ccn([C@@H]2O[C@H](CO)[C@@H](O)C2(F)F)c(=O)n1
ENDPOINT: AUC
ENDPOINT_VALUE: 26.7

====

assay: Drug level in Wistar rat portal blood at 50 mg/kg administered as single dose at 2 hrs by UPLC-MS/MS method; assay type: ADME, organism-based; details: read-out: Drug uptake

COMPOUND: Nc1ccn([C@@H]2O[C@H](CO)[C@@H](O)C2(F)F)c(=O)n1
concentration at 2 h (ng/mL): 199
--
COMPOUND: C[N+](C)(C)CC(CC(=O)[O-])OC(=O)CCC(=O)Nc1ccn([C@@H]2O[C@H](CO)[C@@H](O)C2(F)F)c(=O)n1 (some centres not stated)
concentration at 2 h (ng/mL): 2460

====

half-life at 5 µM overview
assay: Half life in rat plasma at 5 uM by HPLC method; format: ADME, cell-free
ENDPOINT: half-life at 5 µM (h)

MOLECULE: CCCC(=O)Nc1ccn([C@@H]2O[C@H](CO)[C@@H](O)C2(F)F)c(=O)n1
ENDPOINT: half-life at 5 µM
ENDPOINT_VALUE: 1.7

MOLECULE: C[N+](C)(C)CC(CC(=O)[O-])OC(=O)CCCCC(=O)Nc1ccn([C@@H]2O[C@H](CO)[C@@H](O)C2(F)F)c(=O)n1 (stereo partly drawn)
ENDPOINT: half-life at 5 µM
ENDPOINT_VALUE: 6.2

MOLECULE: C[N+](C)(C)CC(CC(=O)[O-])OC(=O)CCC(=O)Nc1ccn([C@@H]2O[C@H](CO)[C@@H](O)C2(F)F)c(=O)n1 (stereo partly drawn)
ENDPOINT: half-life at 5 µM
ENDPOINT_VALUE: 3.7

====

assay: Tmax in Wistar rat at 7.5 mg/kg, iv administered as single dose by UPLC-MS/MS method; assay type: ADME, organism-based; settings: in vivo

COMPOUND: Nc1ccn([C@@H]2O[C@H](CO)[C@@H](O)C2(F)F)c(=O)n1 [GEMCITABINE]
RESULT_UNITS: min
Tmax: 30

====

fold change (FC) overview
Molecular target: Organic cation/carnitine transporter 2 (Homo sapiens, UniProt O76082)
Sequence (O76082 whole entry): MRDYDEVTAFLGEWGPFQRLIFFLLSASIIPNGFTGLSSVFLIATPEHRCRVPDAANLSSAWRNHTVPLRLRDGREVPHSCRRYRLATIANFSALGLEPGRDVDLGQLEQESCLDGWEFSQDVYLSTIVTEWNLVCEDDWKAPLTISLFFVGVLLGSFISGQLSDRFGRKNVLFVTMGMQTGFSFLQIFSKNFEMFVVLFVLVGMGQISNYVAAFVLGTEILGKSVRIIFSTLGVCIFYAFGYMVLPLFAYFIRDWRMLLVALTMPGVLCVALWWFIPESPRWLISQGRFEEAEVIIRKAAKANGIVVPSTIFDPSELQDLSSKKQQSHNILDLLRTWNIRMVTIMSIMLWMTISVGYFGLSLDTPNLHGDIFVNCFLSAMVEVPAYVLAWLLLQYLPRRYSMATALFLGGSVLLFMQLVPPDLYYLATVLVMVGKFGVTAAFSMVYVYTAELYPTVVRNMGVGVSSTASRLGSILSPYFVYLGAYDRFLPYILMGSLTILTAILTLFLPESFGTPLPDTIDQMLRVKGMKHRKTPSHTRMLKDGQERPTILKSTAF
Test: Drug transport assessed as OCTN2 transporter mediated cell permeability in human Caco2 cells across apical to basolateral side at 25 uM after 15 to 120 mins by UPLC-MS/MS method relative to gemcitabine
Assay type: ADME, cell-based
Conditions: caco-2, 25 µM

MOLECULE: C[N+](C)(C)CC(CC(=O)[O-])OC(=O)CCC(=O)Nc1ccn([C@@H]2O[C@H](CO)[C@@H](O)C2(F)F)c(=O)n1 (some centres not stated)
TESTED_SYSTEM: Organic cation/carnitine transporter 2 (Homo sapiens, UniProt O76082)
fold change (FC): 5 to 15
--
MOLECULE: C[N+](C)(C)CC(CC(=O)[O-])OC(=O)CCCCCCC(=O)Nc1ccn([C@@H]2O[C@H](CO)[C@@H](O)C2(F)F)c(=O)n1 (some centres not stated)
TESTED_SYSTEM: Organic cation/carnitine transporter 2 (Homo sapiens, UniProt O76082)
fold change (FC): 5 to 15

====

assay: Half life in rat hepatic homogenates at 5 uM by HPLC method; type: ADME, tissue-based, Liver
ENDPOINT: half-life at 5 µM

COMPOUND: C[N+](C)(C)CC(CC(=O)[O-])OC(=O)CCCCC(=O)Nc1ccn([C@@H]2O[C@H](CO)[C@@H](O)C2(F)F)c(=O)n1 (stereo partly drawn)
ENDPOINT: half-life at 5 µM
ENDPOINT_VALUE: 17.4 h

COMPOUND: C[N+](C)(C)CC(CC(=O)[O-])OC(=O)CCC(=O)Nc1ccn([C@@H]2O[C@H](CO)[C@@H](O)C2(F)F)c(=O)n1 (stereo partly drawn)
ENDPOINT: half-life at 5 µM
ENDPOINT_VALUE: 15.5 h

COMPOUND: CCCC(=O)Nc1ccn([C@@H]2O[C@H](CO)[C@@H](O)C2(F)F)c(=O)n1
ENDPOINT: half-life at 5 µM
ENDPOINT_VALUE: 32.7 h

====

experiment: Half life in pH 6.8 phosphate buffer at 5 uM by HPLC method; format: physicochemical

SMILES_REPRESENTATION: CCCC(=O)Nc1ccn([C@@H]2O[C@H](CO)[C@@H](O)C2(F)F)c(=O)n1
half-life at 5 µM, h: 45.9

====

bioavailability overview
experiment: Oral bioavailability in Wistar rat at 50 mg/kg administered as single dose by UPLC-MS/MS method; assay type: ADME, organism-based; settings: in vivo

COMPOUND: Nc1ccn([C@@H]2O[C@H](CO)[C@@H](O)C2(F)F)c(=O)n1 [GEMCITABINE]
RESULT_UNITS: %
bioavailability: 3.2
--
COMPOUND: C[N+](C)(C)CC(CC(=O)[O-])OC(=O)CCC(=O)Nc1ccn([C@@H]2O[C@H](CO)[C@@H](O)C2(F)F)c(=O)n1 (some centres not stated)
RESULT_UNITS: %
bioavailability: 12
